Measured values drawn from paper PMC11019550 for this set.

# target-of-assay: EcDXPS (Escherichia coli)
# Construct: made in house
# procedure-details: DXPS-IspC coupled assay, apparent Ki on wildtype EcDXPS
# Type: biochemical
# measurement-context: read-out: Ki^app
# Procedure: To determine inhibitor potency, we used the DXPS-DXP reductoisomerae (DXPS-IspC) coupled assay to measure the activity of recombinant purified EcDXPS[24],[25],[31],[44],[50] in the presence of inhibitors. Reactions were initiated by the addition of substrates following a short preincubation of the inhibitor with enzymes, and initial velocities were determined by monitoring reduced nicotinamide adenine dinucleotide phosphate (NADPH) absorbance at 340 nm. […]
measured-quantity: Ki (nM)
Please state the figure in nM; there is no need to write the unit.

Answered examples (6):
INSERT INTO assay_data (smiles_repr, measured_quantity, units_label, endpoint_value) VALUES
  ('CC(=O)P(=O)(O)OCCc1cn([C@H](C(=O)O)C23CC4CC(CC(C4)C2)C3)nn1', 'Ki', 'nM', 390),
  ('CC(=O)P(=O)(O)OCCc1cn(C(c2ccccc2)c2ccccc2)nn1.CCN(CC)CC', 'Ki', 'nM', 5420),
  ('CC(=O)P(=O)(O)OCCc1cn([C@H](CO)Cc2ccccc2)nn1', 'Ki', 'nM', 13400),
  ('CC(=O)P(=O)(O)OCCc1cn([C@H](CC2CCCCC2)C(=O)O)nn1', 'Ki', 'nM', 260),
  ('CC(=O)P(=O)(O)OCCc1cn([C@H](Cc2cccc3ccccc23)C(=O)O)nn1', 'Ki', 'nM', 600),
  ('CC(=O)P(=O)(O)OCCc1cn([C@@H](C(=O)O)C2CCCCC2)nn1', 'Ki', 'nM', 1600);

The record that follows has no Ki shown yet.
Which value of Ki has been reported for `CC(=O)P(=O)(O)OCCc1cn([C@H](COCc2ccccc2)C(=O)O)nn1` in the records?
1420

* * *

Catalogue of Kd values
# target-of-assay: R478A EcDXPS (Escherichia coli, UniProt P77488, R478A)
# procedure-details: Circular dichroism titration (PLThDP formation, apparent KD) on R478A EcDXPS
A complete answer gives the number and then names the unit.

INSERT INTO measurements (smiles_repr, target_of_assay, endpoint_value) VALUES
  ('CC(=O)P(=O)(O)OCCc1cn(C(Cc2ccccc2)Cc2ccccc2)nn1', 'R478A EcDXPS (Escherichia coli, UniProt P77488, R478A)', '6 µM');

Now for a further compound.
# lookup: Kd of `CC(=O)P(=O)(O)OCCc1cn(C(Cc2ccccc2)(Cc2ccccc2)C(=O)O)nn1`
11 µM

* * *

# target-of-assay: wildtype EcDXPS (Escherichia coli, UniProt P77488)
# Sequence (P77488 whole entry): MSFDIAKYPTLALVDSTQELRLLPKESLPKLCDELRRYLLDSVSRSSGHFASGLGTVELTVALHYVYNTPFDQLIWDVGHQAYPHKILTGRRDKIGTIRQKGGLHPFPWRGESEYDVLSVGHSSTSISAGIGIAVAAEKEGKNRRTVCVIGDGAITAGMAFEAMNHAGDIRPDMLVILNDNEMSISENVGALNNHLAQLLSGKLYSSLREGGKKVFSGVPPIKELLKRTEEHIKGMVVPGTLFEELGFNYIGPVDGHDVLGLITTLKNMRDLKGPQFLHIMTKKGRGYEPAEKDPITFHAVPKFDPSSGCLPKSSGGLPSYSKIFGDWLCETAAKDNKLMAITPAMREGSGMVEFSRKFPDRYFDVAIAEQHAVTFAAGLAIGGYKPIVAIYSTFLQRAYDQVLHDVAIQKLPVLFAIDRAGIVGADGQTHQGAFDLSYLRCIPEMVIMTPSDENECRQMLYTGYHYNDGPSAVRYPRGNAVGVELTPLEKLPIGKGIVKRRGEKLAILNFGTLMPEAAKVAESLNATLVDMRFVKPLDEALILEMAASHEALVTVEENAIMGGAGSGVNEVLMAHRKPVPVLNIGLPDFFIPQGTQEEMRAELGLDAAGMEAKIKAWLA
measured-quantity: IC50

// fetch wildtype EcDXPS (Escherichia coli, UniProt P77488) IC50 for `CC(=O)P(=O)(O)OCCc1cn(C(Cc2ccccc2)(Cc2ccccc2)C(=O)O)nn1`
≤ 72 nM

* * *

# target-of-assay: R478A EcDXPS (Escherichia coli, UniProt P77488, R478A)
# procedure-details: IC50 determination for 8 on R478A EcDXPS variant
# measurement-context: 400 nM DXPS, 2 × Km pyruvate, 10 × Km D-GAP
measured-quantity: IC50 (nM)
I only need the number, in nM, no unit after it.

Provide the documented IC50 with R478A EcDXPS (Escherichia coli, UniProt P77488, R478A) as the system for `CC(=O)P(=O)(O)OCCc1cn(C(Cc2ccccc2)(Cc2ccccc2)C(=O)O)nn1`
1010
